# Lookup of reported GI50 keyed by entry
tested on: SK-MEL-2; assay: NCI tumour cell line growth inhibition, 48 h
Activity calls are given as the source filed them. No stated cut-off is given here; in the data, active = GI50 up to about 1.1 µM and inactive = higher.
Measured parameter: GI50

{"Compound": "CC(C)=CCC[C@@H](C)C1=C(O)C(O)C(C)=C2N=C(c3ccccc3)C(=O)OC21 (some centres undefined)", "Reported measurement": "1.61 µM (inactive)"}
{"Compound": "O=C1NN=C(c2ccc(Cl)cc2)CC1C1C(=O)N(c2ccccc2)N=C1c1ccccc1 (centres undefined)", "Reported measurement": "25.1 µM (inactive)"}
{"Compound": "C/C(=C\\[C@H]1C[C@@H]([C@@H]2CC[C@]34C[C@]23C=C[C@@H]2[C@@]3(C)CC=C5C[C@@H](c6ccccc6)OC[C@]5(C)[C@@H]3C[C@@H](O)[C@]24C)C(=O)O1)CO [DICHAPETALIN A]", "Reported measurement": "31.4 µM (inactive)"}
{"Compound": "Nc1ccc(C(=O)N/C(=C\\c2cccc([N+](=O)[O-])c2)c2nc3cc(Cl)ccc3[nH]2)cc1", "Reported measurement": "> 100 µM (inactive)"}

###

tested on: NCI/ADR-RES; assay: NCI tumour cell line growth inhibition, 48 h
Active and inactive are the calls of the source. Rule as the data show it: active = GI50 up to about 1.1 µM and inactive = higher.
Labels: y (active), n (inactive)

{"Compound": "COc1ccc(/C=C2\\CCC(CNc3ccc(S(N)(=O)=O)cc3)C2=O)cc1 (stereo not given)", "Cat": "n"}
{"Compound": "CC(NC(C#N)CC12CC3CC(CC(C3)C1)C2)c1ccccc1 (stereo not given)", "Cat": "n"}
{"Compound": "COc1ccc(OC)c(N2C(=O)CSC2c2cc(OC)c(OC)c(OC)c2)c1 (stereo not given)", "Cat": "n"}
{"Compound": "CCC(C)C(N)C(=O)N/N=C\\c1c2c(nc3ccccc13)-c1cc3c(c(=O)n1C2)COC(=O)[C@]3(O)CC (stereo not given in full)", "Cat": "y"}
{"Compound": "COc1cccc(N2C(=O)C3c4[nH]c5ccc(C)cc5c4C4CCC(C)CC4C3C2=O)c1 (stereo not given)", "Cat": "n"}
{"Compound": "COc1ccc(-c2nc(N)c3ncn(C4OC(CO)C(O)C4O)c3n2)cc1 (stereo not given)", "Cat": "n"}
{"Compound": "OCC1OC(NC(=S)NCCC(F)(F)C(F)(F)C(F)(F)C(F)(F)C(F)(F)C(F)(F)F)C(O)C(O)C1O (stereo not given)", "Cat": "n"}
{"Compound": "Cc1cc(=O)oc2c(C)c3oc(CBr)c(Br)c3cc12", "Cat": "n"}
{"Compound": "N#CCC1C2CC3C(C2=O)C13 (stereo not given)", "Cat": "n"}
{"Compound": "COC(=O)c1cc(C(=O)OC)cc(-c2ccc3c(c2)-c2nc4c(c(-c5ccc(OC)cc5)c2CC3)CCc2ccc(-c3cc(C(=O)OC)cc(C(=O)OC)c3)cc2-4)c1", "Cat": "n"}
{"Compound": "O=C(/C=C\\Nc1ccccc1O)C(F)(F)F", "Cat": "n"}
{"Compound": "NC(=O)c1cc(N2CC2)c([N+](=O)[O-])cc1[N+](=O)[O-] [TRETAZICAR]", "Cat": "n"}
{"Compound": "O=C(O)c1ccccc1/C=N/N=C1c2ccccc2-c2ccccc21", "Cat": "n"}
{"Compound": "O=[N+]([O-])C(Cl)C(Cl)C(Cl)=C(Cl)Cl (stereo not given)", "Cat": "n"}
{"Compound": "O=c1[nH]nc(-c2ccccc2)c2[nH]c3c(c12)Cc1ccccc1-3", "Cat": "n"}
{"Compound": "O=C(c1ccccc1)n1cc(-c2ccccc2)c2c(=O)nc[nH]c21", "Cat": "n"}
{"Compound": "COC1=C(Br)[C@H](O)[C@@]2(C=C1Br)CC(C(=O)NCCCCCNC(=N)N)=NO2 [APLYSINAMISINE II]", "Cat": "n"}
{"Compound": "[N-]=[N+]=Nc1c(Cl)c(=O)n(-c2ccccc2)c2ccccc12", "Cat": "n"}
{"Compound": "O=C1c2ccccc2-c2cc([N+](=O)[O-])c([N+](=O)[O-])cc21", "Cat": "n"}
{"Compound": "Cc1ccc(Cc2n[nH]c(=O)n2/N=C\\CC/C=N\\n2c(Cc3ccc(C)cc3)n[nH]c2=O)cc1", "Cat": "n"}

###

test system: K562; experiment: NCI tumour cell line growth inhibition, 48 h
Activity calls are given as the source filed them. No stated cut-off is given here; in the data, active = GI50 up to about 1.1 µM and inactive = higher.
# Lookup of reported GI50 keyed by entry

{"Compound": "Cc1ns/c(=N\\C(=S)N(C)C)n1C", "Measured on": "K562", "GI50": "> 100 µM (inactive)"}
{"Compound": "CC(C)N/C(=N\\C#N)NS(=O)(=O)c1cnccc1NC1CCCCCCC1", "Measured on": "K562", "GI50": "> 100 µM (inactive)"}
{"Compound": "COc1cccc(C(=O)N[C@@H]2[C@H](O)[C@@H](CO)O[C@H]2n2cnc3c(N)ncnc32)c1", "Measured on": "K562", "GI50": "> 100 µM (inactive)"}
{"Compound": "CCOC(=O)c1c2c(n(-c3ccc(C)cc3)c1C)-c1ccccc1C(=O)C2(C(=O)OCC)C(=O)OCC", "Measured on": "K562", "GI50": "14.5 µM (inactive)"}
{"Compound": "Cc1ccc(S(=O)(=O)SCc2ccccc2)cc1", "Measured on": "K562", "GI50": "4.57 µM (inactive)"}
{"Compound": "CCNC(=S)NNC(=O)CSc1nc2ccc(I)cc2c(=O)n1Cc1ccccc1", "Measured on": "K562", "GI50": "10.6 µM (inactive)"}
{"Compound": "COc1cc2c(OC)cc1CSCc1sc(C)c(c1Br)CSC2", "Measured on": "K562", "GI50": "> 100 µM (inactive)"}
{"Compound": "COc1ccc(OC)c2sc(N3C(=O)/C(=C/c4ccccc4S)N=C3c3ccccc3)nc12", "Measured on": "K562", "GI50": "26 µM (inactive)"}
{"Compound": "COc1cc2c(cc1OCCCC(=O)Nc1cc(C(=O)Nc3cc(C(=O)Nc4cc(C(=O)NCCCN(C)C)n(C)c4)n(C)c3)n(C)c1)N=C[C@@H]1CCCN1C2=O", "Measured on": "K562", "GI50": "2.19 µM (inactive)"}
{"Compound": "NC(=S)NN=Cc1ccccc1OCc1cccc(COc2ccccc2C=NNC(N)=S)n1", "Measured on": "K562", "GI50": "> 100 µM (inactive)"}
{"Compound": "COc1ccc(/C=C2\\CCC(CNc3ccc(S(N)(=O)=O)cc3)C2=O)cc1 (stereo unspecified)", "Measured on": "K562", "GI50": "1.51 µM (inactive)"}
{"Compound": "COc1cc(N(CCC#N)CCC#N)ccc1C(/N=N/c1cccc(C)c1)=N\\NC(=O)c1ccc(C)cc1", "Measured on": "K562", "GI50": "> 100 µM (inactive)"}
{"Compound": "Cc1ccc(C)c(NC(=O)CCc2nnc(S)[nH]2)c1", "Measured on": "K562", "GI50": "> 100 µM (inactive)"}
{"Compound": "CC(C(=O)N1C(=O)N(C(=O)C(C)C(O)c2ccccc2)C2CCCCC21)C(O)c1ccccc1 (stereo unspecified)", "Measured on": "K562", "GI50": "> 10 µM (inactive)"}
{"Compound": "CC(=O)/C=N/CC(=O)O", "Measured on": "K562", "GI50": "> 100 µM (inactive)"}
{"Compound": "Nc1nc2c(ncn2C2OC(CO)C(O)C2N)c(=O)[nH]1 (stereo unspecified)", "Measured on": "K562", "GI50": "86.9 µM (inactive)"}
{"Compound": "NNc1nncc2[nH]nnc12", "Measured on": "K562", "GI50": "> 100 µM (inactive)"}
{"Compound": "CCSSCS(C)(=O)=O", "Measured on": "K562", "GI50": "3.88 µM (inactive)"}
{"Compound": "COC(=O)CCC(NC(=S)N/N=C(\\C)c1ccc[nH]1)C(=O)OC (stereo unspecified)", "Measured on": "K562", "GI50": "> 100 µM (inactive)"}
{"Compound": "O=[N+]([O-])c1ccc(/N=N/c2c(O)ccc3cc(S(=O)(=O)O)cc(S(=O)(=O)O)c23)cc1", "Measured on": "K562", "GI50": "> 100 µM (inactive)"}
{"Compound": "COc1cc(C2C(C(=O)Nc3ccc([N+](=O)[O-])cc3)=C(C)NC(C)=C2C(=O)Nc2ccc([N+](=O)[O-])cc2)ccc1O", "Measured on": "K562", "GI50": "13.5 µM (inactive)"}

###

test system: MDA-MB-231; assay: NCI tumour cell line growth inhibition, 48 h
Calls of active or inactive are those of the source. No stated cut-off is given here; in the data, active = GI50 up to about 1.1 µM and inactive = higher.
Labels: T for active, F for inactive

{"Compound": "COc1ccc(/C=C2\\CCC(CNc3ccc(S(N)(=O)=O)cc3)C2=O)cc1 (centres undefined)", "Measured on": "MDA-MB-231", "Cat": "F"}
{"Compound": "C[S+](C)([O-])=Nn1c(=O)n2n(c1=O)[C@H]1CC[C@@H]2C1", "Measured on": "MDA-MB-231", "Cat": "F"}
{"Compound": "COc1cc(C(=O)/C=C/c2ccc(OCCSCCCCCCCCCCSCCOc3ccc(/C=C/C(=O)c4cc(OC)c(OC)c(OC)c4)cc3)cc2)cc(OC)c1OC", "Measured on": "MDA-MB-231", "Cat": "F"}
{"Compound": "C=CCOc1ccc2c(C)cc(=O)oc2c1C", "Measured on": "MDA-MB-231", "Cat": "F"}
{"Compound": "CCC(C)C(N)C(=O)N/N=C\\c1c2c(nc3ccccc13)-c1cc3c(c(=O)n1C2)COC(=O)[C@]3(O)CC (some centres undefined)", "Measured on": "MDA-MB-231", "Cat": "F"}
{"Compound": "CN(C)CCn1c(=O)c2ccc3c4c(nn3CCN(C)C)c3cc([N+](=O)[O-])ccc3n(c1=O)c24", "Measured on": "MDA-MB-231", "Cat": "T"}
{"Compound": "CC(C)c1ccccc1SCc1cc(=O)cc(CSc2ccccc2C(C)C)o1", "Measured on": "MDA-MB-231", "Cat": "F"}
{"Compound": "CC(C)C1CN1CC(O)Cn1ccnc1[N+](=O)[O-] (centres undefined)", "Measured on": "MDA-MB-231", "Cat": "F"}
{"Compound": "N#CC(C#N)/N=N/c1ccc(-c2nc3ccccc3o2)cc1", "Measured on": "MDA-MB-231", "Cat": "F"}

Attribution: ChEMBL document CHEMBL1201862
